Item-by-item account of Percent Viability @ 1 μM (TZM-bl cells)
Test system: TZM-bl cell line
Type: cell-based
test.parameters: human, 1 μM
State the answer as a number, implicitly in %.

compound: COC(=O)N1CCC(CCc2c(-c3ccc(C(F)(F)F)cn3)nn(-c3nc4cc(Br)ccc4[nH]3)c2O)CC1 [Compound I-708]
unit.abbrev: %
Percent Viability @ 1 μM (TZM-bl cells): 77.8

## Task // fetch Percent Viability @ 1 μM (TZM-bl cells) given entry O=C(OCc1ccccc1)N1CCCC(Cc2nn(-c3nc4ccccc4[nH]3)c(O)c2CCc2ccc(F)cc2)C1 (stereo not shown) [Compound I-773]
## Result 101.8

## Task // fetch Percent Viability @ 1 μM (TZM-bl cells) given entry Oc1c(CCc2ccc(F)cc2)c(-c2ccc(C(F)(F)F)cc2)nn1-c1nc2ccccc2[nH]1 [Compound I-106]
## Result 84.5

## Task // fetch Percent Viability @ 1 μM (TZM-bl cells) given entry Oc1c(CCc2ccc(F)cc2)c(-c2ccc(C(F)(F)F)cc2)nn1-c1cc(C2CC2)n[nH]1 [Compound I-619]
## Result 105.5

## Task // fetch Percent Viability @ 1 μM (TZM-bl cells) given entry CC(=O)N1CCC(c2nn(-c3nc4cc(Cl)ccc4[nH]3)c(O)c2CCn2nccn2)CC1 [Compound I-704]
## Result 99.4

## Task // fetch Percent Viability @ 1 μM (TZM-bl cells) given entry CC(=O)N1CCCC(c2nn(-c3nc4ccccc4[nH]3)c(O)c2CCc2ccc(F)cc2)C1 (stereo not shown) [Compound I-754]
## Result 97.2

## Task // fetch Percent Viability @ 1 μM (TZM-bl cells) given entry O=S(=O)(NCc1nn(-c2nc3ccccc3[nH]2)c(O)c1CCc1ccc(F)cc1)c1cccnc1 [Compound I-774]
## Result 94.4
